- subject_of_test: Acetylcholinesterase (Mus musculus) (UniProt P21836)
- Sequence (whole entry): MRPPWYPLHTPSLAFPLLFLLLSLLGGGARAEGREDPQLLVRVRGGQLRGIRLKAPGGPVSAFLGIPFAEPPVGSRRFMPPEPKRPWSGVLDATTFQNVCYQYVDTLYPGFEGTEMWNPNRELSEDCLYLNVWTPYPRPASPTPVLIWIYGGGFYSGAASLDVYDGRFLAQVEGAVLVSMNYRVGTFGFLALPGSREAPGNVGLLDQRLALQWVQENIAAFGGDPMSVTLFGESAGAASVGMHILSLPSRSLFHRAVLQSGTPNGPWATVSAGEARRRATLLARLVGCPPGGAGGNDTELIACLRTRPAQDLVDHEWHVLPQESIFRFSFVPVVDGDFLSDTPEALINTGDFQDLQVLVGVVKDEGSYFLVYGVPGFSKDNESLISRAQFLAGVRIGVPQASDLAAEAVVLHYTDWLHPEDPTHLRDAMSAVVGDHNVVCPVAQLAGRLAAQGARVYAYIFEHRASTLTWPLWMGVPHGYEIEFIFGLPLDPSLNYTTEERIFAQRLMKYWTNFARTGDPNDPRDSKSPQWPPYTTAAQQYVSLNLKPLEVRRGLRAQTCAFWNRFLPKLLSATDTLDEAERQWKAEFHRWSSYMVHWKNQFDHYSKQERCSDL
- run_conditions: Brain, at 10 µM
This listing pairs compounds with measured inhibition.
Just the number in %, nothing appended.

Example results:
[
  {
    "smiles_record": "O=C(Oc1cccc(/C=C2\\Cc3ccccc3C2=O)c1)c1cccc(OC(F)(F)F)c1",
    "unit_of_measure": "%",
    "inhibition": 64.6
  },
  {
    "smiles_record": "O=C(Oc1cccc(/C=C2\\Cc3ccccc3C2=O)c1)c1ccc(CCl)cc1",
    "unit_of_measure": "%",
    "inhibition": 65.3
  },
  {
    "smiles_record": "O=C(Oc1cccc(/C=C2\\Cc3ccccc3C2=O)c1)c1ccc([N+](=O)[O-])cc1",
    "unit_of_measure": "%",
    "inhibition": 65.3
  },
  {
    "smiles_record": "O=C(Oc1cccc(/C=C2\\Cc3ccccc3C2=O)c1)c1ccccc1F",
    "unit_of_measure": "%",
    "inhibition": 40.5
  },
  {
    "smiles_record": "COc1ccc(C(=O)Oc2cccc(/C=C3\\Cc4ccccc4C3=O)c2)cc1",
    "unit_of_measure": "%",
    "inhibition": 33.9
  }
]

Then there is this compound:
Which inhibition value is on record for COc1cc(C(=O)Oc2cccc(/C=C3\Cc4ccccc4C3=O)c2)cc(OC)c1OC ?
72.1
